# experimental details: yeast display, Sf9 membrane polyspecificity reagent, FACS + sequencing; frameworks hold sequencing errors
measured metric: polyreactivity (PSR sort gate)

# annotated cases, reported polyreactivity (PSR sort gate) shown
1) QVQLVESCGGLVQAGGSLRLSCAASGLIFRPNAMGWYRQAPAKERELVAAISGGGGSTYYADSVKGRFTISRDNAKNTVYLQMKSLKPEDTAVYYCNARKLVNRYPVIGVETYDYWGQGTQVTVSS	low polyreactivity
2) QVQLVESGGGLVQAGGSLRLSCAASGRTFRWYTMGWYRQAPGKEREFVAAITWSGSSTNYADSVKGRFTISRDNEKNTVYLQMNSLKPEDTAFYYCAAENRRRRDDYWGQGTQVTVSS	high polyreactivity
3) QVQLVESGGGLVQAGGSLRLSCAASGSTFVHYAMGWYRQAPGKERELVADITTGDITNYADSVKGRFTISRDNAKNTVYLQMNSLKPEDTAVYYCAVDHQNSPFHVGRDEYWGQGTQVTVSS	low polyreactivity
4) QVQHVESGGGLVQAGGSLRLSCAASGIYYNAMGWYRQAPGKERELVAVITYSGGSTYYADSVKGRFTISRDNAKNTVYLQMNSLKPEETAVYYCAADDYYVALPGLYDYWGQGTQVTVSS	low polyreactivity
5) QVQLVESGGGLVQAGGSLRLSCAASGFIFDSYAMGWYRQAPGKERELVAAISWSGSSTYYADSVKGRFTISRDNAKNTVYLQMNSLKPEDTAVYYCAALVYPYWGCSMYYWGQGTQVTVSS	high polyreactivity

Please look at the items below and tell me polyreactivity (PSR sort gate) for each one, in order.
1. QVQLVESGGGLVQAGGSLRLSCAASGRIFYQYVMGWYRQAPGKDRELVAAISRRGGSTYYADSVKGRFTISRDNAKNTVYLQMNSLKPEDTAVYYCAARRRYRRHRYDYWGQGTQVTVSS
2. QVQLVESGGGLVQAGGSLRLSCAASGRTFSTNAMGWYRQAPGKERELVAAITASGGSTYYADSVKGRFTISRDNAKNTVYLQMNSLKPEDTAVYYCAKRYRAYHYGWWYDYWGQGTQVTVSS
3. QVQLVESGGGLVQAGGSLRLSCAASGIIFADYAMGWYIQAPGKERELVAAISTSGGSTYYADSVKGRFTISRDNAKNPVYLQMNSLKPEDTAVYYCNAVYYTSYSGYQFVYEYDYWGQGTQVTVSS
4. QVQLVESGGGLVQAGGSLRLSCAASGRIFRGYAMGWYRQAPGKERELVAAISGRGGRTNYADSVKGRFTISRDNAKNTVYLQMNSLKPEDTAVYYCATVPYTASRYEYWGQGTQVTVSS
5. QVQLVESGGGLVQAGGSLRLSCAASGSTFGVNVMGWYRQAPGKERELVDAISRSGGRTYYADSVKGRFTISRDNAKNTVYLQMNSLKPEDTAVYYCNTRGYDYWGQGTQVTVSS
6. QVQLVESGGGLVQAGGSLRLSCAASGRTFYSYARGWYRQAPGKERELVAAINSGGDTYYADSVKGRFTISRDNAKNTVYLQMNSLKPEDTAVDYCAADIEVQYITLGVELPYDYWGQGTQVTVSS

Reply:
1: high polyreactivity; 2: high polyreactivity; 3: low polyreactivity; 4: high polyreactivity; 5: high polyreactivity; 6: low polyreactivity

###

# experimental details: yeast display, Sf9 membrane polyspecificity reagent, FACS + sequencing; frameworks hold sequencing errors
measured metric: polyreactivity (PSR sort gate)

# annotated cases, reported polyreactivity (PSR sort gate) shown
1. QVQLVESGGGLVQAGGSLRLSCAASGFFFSHYAMGWYRQAPGKERVFVATISKRGGSTTYADSVKGRFTISRDNAKNTVYLQMNSLKPEDTAVYYCAATYYRFPSLIAYVRYDYWGQGTQVTVSS	high polyreactivity
2. QVQLVESGGGLVQAGGSLRLSCAASGSTFYYYAMGWYRQAPGKEREFVAAISSSTGSTYYADSVKGRFTISRDNAKNTVYLQMNSLKPEDTAVYYCNALTWYTSQDYDYWGQGTQVTVSS	high polyreactivity
3. QVQLVESGGGLVQAGGSLRLSCAASGRTFDPNAMGWYRQAPGKERELVAAISGRGTSTYYADSVKGRFTISRDDAKNTVYLQMNSLKPEDTAVYYCAKAGAGESIAKYDYWGQGTQVTVSS	low polyreactivity
4. QVQLVESGGGLVQAGGSLRLSCAASGITFDGNAMGWYRQAPGKERELVAAITSGGSTYYADSVKGRFTISRDNAKNTVYLQMNSLKPEDTAVYYCAKEPPPVKGDYWGQGTQVTVSS	low polyreactivity
5. QVQLVESGGGLVQAGGSLRLSCAASGFTFSGYDMGWYRPAPGKERELVAGISSGGVSTTYADSVKGRFTISRDNAKNTVYLQMNSLKPEDTAVYYCNAEWTSFDWGQGTQVTVSS	low polyreactivity
6. QVQLVDSGGGLVQAGGSLRLSCAAYGSIFKYYCMGWYRQAPGKERELVATISKRGGSTYYADSVKGRFTISRDNAKNSVYLQMNSLKPEDTAVYYCAKDSPALRPLTWQQLYDFWGQGTQVTVSS	high polyreactivity
7. QVQLVESGGGLVQAGGSLRLSCAASGSTFTWNAMGWYRQAPGKERELVASITWGGGGTYYADSVKGRFTISRDNAKNTVYLQMNSLKPEDTAVYYCAAGLWSPAYRGGYYYWGQGTQVTVSS	low polyreactivity
8. QVQLVESGGGLVHAGGSLRLSCAASGSTFDKYAMGWYRQAPGKERELVAAITWGGGSTYYADSVKGRFTISRDYAKNTVYLQMNSLKPEDTAVYYCNAYRVYAWIEYNYWGQGTQVTVSS	low polyreactivity
9. QVQLVESGGGLVQAGGSLRLSCAASGNTIGVNAMGWYRQAPGKERELVAVITSGGGSTYYADSVKGRFTISRDNAKNTVYLQMNSLKPEDTAVYYCARRSYRLYTLGNGYWGQGTQVTVSS	low polyreactivity
10. QVQLVESGGGLVQAGGSLRLSCDASGRIFRVYAMGWYRQAHGKERQLVAAIRWTGGSTYYADSVKGRFKISRDNAKNTVYLQMNSLKPEDTAVYYCAAGRYYSDGSRTIYDYWGQGTQVTVSS	low polyreactivity

Now look at this one.
Task item: Report polyreactivity (PSR sort gate), nothing else, for this sequence: QVQLVESGGGLVQAGGSLRLSCAASGSTFWYYDMGWYRQAPGKERELVAAITSGGRTNYADSVKGRFTISRDNAKNTVYLQMNSLKPEDTAVYYCNAVSYGKYVFQDGDYWGQGTQVTVSS
Reply: high polyreactivity

###

# experimental details: yeast display, Sf9 membrane polyspecificity reagent, FACS + sequencing; frameworks hold sequencing errors
measured metric: polyreactivity (PSR sort gate)

# annotated cases, reported polyreactivity (PSR sort gate) shown
1. QVHLVETGGGLVQAGGSLRLSCGASGYIFSQYAMGCYRQAPGKERELVADITTSAGSTYYADSVKGRFTISRDNAKNTVYLQMNSVIPEDTAVYYCAADVYGHSYYDYDYWGQGTQVTVSS	low polyreactivity
2. HVQLVESGGGLVQAGARLRLSCAASGITFFYYAMGWYRQAPGKERELVAAINWSGRTYYADSVKGRFTISRDNAKNTVYLQMNSLKPEDTAVDYCAAVTYGPGVSGMDYWGQGTQVTVSS	low polyreactivity
3. QVQLVESGGGLVQAGGSLRLSCAASGRTFLINAMGWYRQAPGKEWELVAAITQSGGSTYYADSVKGRFTISRDKAKNTVYLQLNSLKPEDTAVYYCAADVPGVYPYDYWGQGTQVTVSS	low polyreactivity
4. QVQLVESGGGLVQAGGILRLTCAASGRIFIYYAMGWYRQAPGKERELVAAISWGGGRTYYADSVKGRFTISRDNAKNTVYLQMNSLKPEDTAVYNCAAGVYTGQHEYDYWGQGTQVTVSS	low polyreactivity
5. QVQLVESGGGLVQAGGSLRLSCAASGSIFTHNAMGWYRQAPGKVREFVAAISSGGSTNYADSVKGRFTISRDNAKNTVYSQMNSLKPEDTAVYYCAKSIDGWYWRRRRYDYWGQGTQVTVSS	low polyreactivity

Please look at the items below and tell me polyreactivity (PSR sort gate) for each one, in order.
1. QVQLVESGGGLVQAGGSLRLSCAASGIIFSYNAMGWYRQAPGKERELVAAITRTGSTNYADSVKGRFTISRDNAKNTVYLQMNSLKPEDTAVYYCAAGWGYGRYRHVGYRMDYWGQGTQVTVSS
2. QVQLVESGGGLVQAGGSLRLSCAASGYTIYQYAMGWYRQAPRKERELVAAISSDASTSYADSVKGRFTISRDNAKNTVYLQMNSLKPEDTAVYYCAADPGPYYDWGYDYWGQGTQVTVSS
3. QVQLVESGGGLVQAGGSLRLSCAASGSIFNIYAMGWYRQAPGKERELVATITGIADSTYYADSVKGRFTISRDNAKNTVYLQMNSLKPEDTAVYFCAAEKYVAEYEYWGQGTQVTVSS
4. QVQLVESGGGLVQAGGSLRLSCAASGRIFAYYAMGWYRQAPGTERELVAAISRSGVSTYYADSVKGRFTISRDNAKNTVYLQMNSLKPEDTAVYYCAAERYWTYYSGFVYGGDNYWGQGTQVTVSS
5. QVQLVESGGGLVQAGGRLRLSCAASGSIFGFYAMGWYRPAPGKERELVAGISVSDGSTYYADSVKGRFTISRDNAKNTVYLQMNSLKPEDTAVYYCAASPRGSYGYYYWGQGTQVTVSS
6. QVQLVESGGGLVQAAGSLRLSCAASGSTFPYYAMGWYRQAPGQERELVAAIPRSGGSTYSADSVKGRFTISRDHAKNTVYLQMNSLKPEDTAVYYCAAKLAQRYFYRYDYWGPGTQVTVSS
7. QVQLVESGGGLVQAGGSLRLICAASGSNFGSNAMGWYRQAPGKETEFVAVITWRVGVTYYADSVKGRFTISRDNAKNTVYLQMNSLKPEDTAVYYCNVDWKVYGAPDYRIAWKYDYWGQGTQVTVSS
8. QVQLVESGGGLVQAGGSLRLSCAASGSISGYYAMGWYSQAPVKERELVASIRYTGARTYYADSVKGRFTISRDNAQNTVYLQMNSLKPEDTAVYYCAADVKRDRVWGGDYWGQGTQVTVSS

Reply:
1. high polyreactivity
2. low polyreactivity
3. low polyreactivity
4. low polyreactivity
5. low polyreactivity
6. high polyreactivity
7. low polyreactivity
8. low polyreactivity

Please look at the items below and tell me polyreactivity (PSR sort gate) for each one, in order.
1. QVQLVESGGGLVQAGGSLRLSCAASGRTFANYAMGWYRQAPGKERELVAAITSGGRTYYADSVKGRFTISRDNAKNTVYLQMNSLKPEDTAVYYCAADYTYDYQNDYWGQGTQVTVSS
2. QVQLVESGGGLVQAGGSLRLSCAASGIIFDGYVMGWYRQAPGNERELVAAISRSGGRTFYADSVKGRFTISRDNAKNTVYLQMNSLKPEATAVYYCAARRVRTRGYNYWGQGTQVTVSS

Reply:
high polyreactivity
high polyreactivity

Please look at the items below and tell me polyreactivity (PSR sort gate) for each one, in order.
1. QVQLVESGGGLVQAGGSLRLSCAASGITFNYYAMGWYRQAPGKERELVAVISSSGGRTYYADSVKGRFTISRDNAKNTVYLQMNSLKPEDTAVYYCAAGGSVAFYYWGQGTQVTVSS
2. QVQLVESGGGLVQAGGSLRLSCAASGGIFSKNVMGWYRQAPGKERELVAAISRGGTTSYADSVKGRFTISRDNAKNTVYLQMNSLKPEDTAVYFCAAKYWWYPYFTVDYDYWGQGTQVTVSS
3. QVQLVESGGGLVQAGGSLRLSCAASGSTFTSYAMGWYRQAPGKEREFVAAISQSSGSTYYADSVKWSFTISRDNAKNTVYLQMNSLKPEDTAVYYCAAKGRIRYGYGFDYWGQGTQVTVSS
4. QVQLVESGGGLVQAGGSLRLSCAASGRTFGLYAMGWYRQAPGKERELVATISVSSGSTYYADSVKGRFTISRDNAKYTVYLQMNSLKPEDTAVYYCNVRYKRNRWQYDYWGQGTQVTVSS
5. QVQLVESGGGLVQAGGSLRLSCAASGSIFTRNAMGWYRQAPGKERELVAAISWRGGITNYADSVKGRFTISRDNAKNTVYLQMNSLKPEDTAVYYCNKIRTRGGYGYWGQGTQVTVSS
6. QVQLVESGGGLVQAGGSLRLSCAASGRNFGPYAMGWYRQAPGKERELVAVISTRGGITNYADSVKGRFTISRDTAKNTVYVQLNSLKPEDTAVYYCAARFSYPYRIAFNYWGQGTQVTVSS

Reply:
1: high polyreactivity; 2: high polyreactivity; 3: high polyreactivity; 4: high polyreactivity; 5: high polyreactivity; 6: low polyreactivity
